- assayed system: Human recombinant GSK-3β (Homo sapiens, UniProt P49841)
- Construct: purchased Millipore (Millipore Iberica S.A.U.)
- Sequence (P49841 whole entry): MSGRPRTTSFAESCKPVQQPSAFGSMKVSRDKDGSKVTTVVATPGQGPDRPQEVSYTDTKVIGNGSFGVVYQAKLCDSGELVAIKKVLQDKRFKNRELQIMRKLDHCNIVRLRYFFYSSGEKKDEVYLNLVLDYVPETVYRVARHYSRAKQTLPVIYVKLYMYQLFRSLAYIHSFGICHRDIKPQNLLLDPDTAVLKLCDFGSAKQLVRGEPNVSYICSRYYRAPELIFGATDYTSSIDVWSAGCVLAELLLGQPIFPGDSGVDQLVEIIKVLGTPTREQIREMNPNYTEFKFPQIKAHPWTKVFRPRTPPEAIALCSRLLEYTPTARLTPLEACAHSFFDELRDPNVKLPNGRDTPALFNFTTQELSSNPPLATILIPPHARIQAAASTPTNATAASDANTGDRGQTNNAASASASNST
- assay: GSK-3β inhibition in vitro assay (Kinase-Glo luminescence)
- Type: biochemical
- condition set: ATP 1 µM, GSM substrate 25 µM; mean ± SEM
quantity measured: IC50 (µM)
Give the quantity in µM, number only.

Using the record for CCOC(=O)C1=C(C)N(CCC2CCN(Cc3ccccc3)CC2)C(=O)NC1c1coc2c(Cl)cc(Cl)cc2c1=O (racemic) , report its IC50.
29.1

----------
- assayed system: human recombinant butyrylcholinesterase (hBuChE; EC 3.1.1.8) (Homo sapiens)
- Construct: purchased Sigma-Aldrich (Prague, Czech Republic)
- assay: Cholinesterase inhibition in vitro assay (modified Ellman's method), BuChE
- Type: biochemical
- condition set: pH 7.4, 37 °C, mean ± SEM, read-out: BChE (IC50 µM)
quantity measured: IC50 (µM)
Lab book: enter the figure in µM, no units written.

I would be grateful if you could share the reported IC50 for CCOC(=O)C1=C(C)N(CCC2CCN(Cc3ccccc3)CC2)C(=O)NC1c1coc2ccc(Br)cc2c1=O (stereo not shown) .
8.4

Which value of IC50 has been reported for CCOC(=O)C1=C(C)N(CCCC2CCN(Cc3ccccc3)CC2)C(=O)NC1c1coc2ccccc2c1=O (stereo not shown) in the records?
4.29

Which IC50 is reported for this molecule? CCOC(=O)C1=C(C)N(CCC2CCN(Cc3ccccc3)CC2)C(=O)NC1c1coc2cc(C)c(Cl)cc2c1=O (stereo not shown)
15.7

New cases:
Query (molecule): CCOC(=O)C1=C(C)N(CCCC2CCN(Cc3ccccc3)CC2)C(=O)NC1c1coc2ccc(Br)cc2c1=O (stereo not shown) ; field requested: IC50
6.51

----------
Entries annotated with measured log10 IC50
- assayed system: human recombinant butyrylcholinesterase (hBuChE; EC 3.1.1.8) (Homo sapiens, UniProt P06276)
- Construct: purchased Sigma-Aldrich (Prague, Czech Republic)
- Sequence (P06276 29-602): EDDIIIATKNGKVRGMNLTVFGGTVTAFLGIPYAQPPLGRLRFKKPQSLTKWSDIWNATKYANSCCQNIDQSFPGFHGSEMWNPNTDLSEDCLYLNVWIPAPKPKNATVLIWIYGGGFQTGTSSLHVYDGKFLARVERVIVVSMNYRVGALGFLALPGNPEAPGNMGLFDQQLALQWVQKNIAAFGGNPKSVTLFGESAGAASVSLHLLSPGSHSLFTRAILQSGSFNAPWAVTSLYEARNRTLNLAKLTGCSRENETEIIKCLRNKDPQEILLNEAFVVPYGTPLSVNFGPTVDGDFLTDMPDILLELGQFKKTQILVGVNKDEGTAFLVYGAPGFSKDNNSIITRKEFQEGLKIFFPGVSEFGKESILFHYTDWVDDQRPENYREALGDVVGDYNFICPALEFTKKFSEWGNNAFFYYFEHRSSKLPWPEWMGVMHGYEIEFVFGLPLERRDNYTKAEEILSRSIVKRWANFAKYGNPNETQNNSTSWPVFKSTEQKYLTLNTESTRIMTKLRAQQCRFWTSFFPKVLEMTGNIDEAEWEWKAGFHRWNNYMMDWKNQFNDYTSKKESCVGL
- assay: Cholinesterase inhibition in vitro assay (modified Ellman's method), BuChE
- Assay type: biochemical
- condition set: pH 7.4, 37 °C, mean ± SEM, read-out: BChE (IC50 µM)
Please interpret these as log10 of IC50 where IC50 is in µM.

Below are worked cases with known answers.
Given the entry CCOC(=O)C1=C(C)N(CCCC2CCN(Cc3ccccc3)CC2)C(=O)NC1c1coc2cc(CC)ccc2c1=O (stereo not drawn) , report its measured log10 IC50.
0.47

Entry CCOC(=O)C1=C(C)N(CCC2CCN(Cc3ccccc3)CC2)C(=O)NC1c1coc2ccccc2c1=O (stereo not drawn) : reported log10 IC50 = ?
0.82

Give the measured log10 IC50 of CCOC(=O)C1=C(C)N(CCC2CCN(Cc3ccccc3)CC2)C(=O)NC1c1coc2c(Cl)cc(Cl)cc2c1=O (racemic) .
1.24

Requested field: log10 IC50. Item: CCOC(=O)C1=C(C)N(CCCC2CCN(Cc3ccccc3)CC2)C(=O)NC1c1coc2cc(C)c(Cl)cc2c1=O (stereo not drawn)
0.80

Dear colleague, I am looking for the recorded log10 IC50 of the following molecule: CCOC(=O)C1=C(C)N(CC2CCN(Cc3ccccc3)CC2)C(=O)NC1c1coc2cc(CC)ccc2c1=O (stereo not drawn)
1.56

Which value of log10 IC50 has been reported for CCOC(=O)C1=C(C)N(CCCC2CCN(Cc3ccccc3)CC2)C(=O)NC1c1coc2c(Cl)cc(Cl)cc2c1=O (stereo not drawn) in the records?
1.16

For the molecule CCOC(=O)C1=C(C)N(CCC2CCN(Cc3ccccc3)CC2)C(=O)NC1c1coc2cc(CC)ccc2c1=O (stereo not drawn) , what log10 IC50 is on record?
0.78

May I ask what log10 IC50 has been recorded for CCOC(=O)C1=C(C)N(CCCC2CCN(Cc3ccccc3)CC2)C(=O)NC1c1coc2ccc(C(C)C)cc2c1=O (stereo not drawn) ?
0.64

Proceed to the following item.
Sample CCOC(=O)C1=C(C)N(CC2CCN(Cc3ccccc3)CC2)C(=O)NC1c1coc2ccccc2c1=O (stereo not drawn) — what was its log10 IC50?
1.17
